- Test system: UO-31 renal
- Protocol Summary: NCI-60 one-dose screen, 48 h (100 = growth as untreated, 0 = no growth, -100 = all killed)
- Run Conditions: 10 µM
About 83,000 compounds went through this panel and 20% of them were active in at least one assay; those are over-represented in the sample as a whole.
I'd appreciate it if you could supply growth values for the items below.
One number for each entry, in %.

For orientation, consider the following solved cases.
O=C1CCC(N2Cc3c(NCc4ccc(-c5ccccc5)cc4)cccc3C2=O)C(=O)N1 (centres undefined) | 45.3
COc1cc(NC(=O)CSc2nnc(-c3ccc4nc(-c5ccc(Cl)cc5)[nH]c4c3)o2)cc(OC)c1OC | 63.8
Cc1noc2c(Cc3ccc([N+](=O)[O-])cc3)nn(CC(=O)N/N=C/c3ccc(Cl)cc3)c(=O)c12 | 40.8
O=C(c1ccccc1)n1ccc(-c2cc3cc(Br)ccc3oc2=O)n1 | 11.7
CN(CCO)c1oc(-c2ccccc2)nc1[P+](c1ccccc1)(c1ccccc1)c1ccccc1 | 74.3

Batch of 4 compounds: report growth for each.
1. O=S(=O)(Nc1ncccn1)c1ccc(-n2c(-c3ccc(Br)cc3)nc(-c3ccccc3)c2-c2ccccc2)cc1
2. O=C1NC(=NC2CCCCCC2)N/C1=C\c1ccc2ncoc2c1
3. COc1ccc(CN2[C@@H](C(=O)NCc3ccc(C(=O)NO)cc3)Cc3c([nH]c4ccccc34)[C@@H]2C2CC2)cc1
4. Cc1ccc(C(=O)CSc2nnc(-c3c[nH]c4ccccc34)n2-c2ccccc2)cc1

1: 20.1; 2: 4.42; 3: 40.5; 4: 30.3

---

- System: NCI-H322M lung
- Protocol Summary: NCI-60 one-dose screen, 48 h (100 = growth as untreated, 0 = no growth, -100 = all killed)
- Run Conditions: 10 µM
This is part of a sample that, as a whole, favours compounds with a hit. Of some 83,000 tested, about 20% had one in any assay.
growth under 80% gets y, anything at or over 80% gets n.

Below, 2 molecules whose answers are already recorded.
CN1CCN(c2ccc(Nc3nc(NCCCNC(=O)C4CCCCC4)c4sccc4n3)cc2)CC1 | y
CONC[C@]1(C)C=C2C(=O)[C@](C)(O)C3(CC3)C(C)=C2[C@H]1O | y

Lab log: compare recorded growth with 80%; is it strictly lower for Cc1cc(=O)oc2cc(OCCCCOc3ccc(/C=C/C(=O)Nc4ccccc4[N+](=O)[O-])cc3)ccc12 ?
n

Would you kindly repeat that for O=S(=O)(c1ccc(Cl)cc1)c1nc(-c2ccccc2)oc1S(=O)(=O)c1ccc(Cl)cc1 ?
n

Would you kindly repeat that for O=C(CSc1nnc(-c2ccc3nc(-c4ccccc4)[nH]c3c2)o1)Nc1ccc(Cl)cc1 ?
y

Would you kindly repeat that for O=C(Nc1ccc(Cl)c([N+](=O)[O-])c1)Nc1ccc(Cl)c([N+](=O)[O-])c1 ?
y

Would you kindly repeat that for CN1CCc2c(sc3ncnc(N/N=C/c4ccc5ccccc5c4)c23)C1 ?
n

Would you kindly repeat that for CN1C(=O)N(C)C2SC(N/N=C/c3cccs3)=NC21 (stereo not drawn) ?
y

---

- System: SK-OV-3 ovarian
- Protocol Summary: NCI-60 one-dose screen, 48 h
- Run Conditions: 10 µM
This is part of a sample that, as a whole, favours compounds with a hit. Of some 83,000 tested, about 20% had one in any assay. Active and inactive are the calls of the source. The calls were made as follows: active = growth percent below 10; inactive = the rest.
Answer with one of the outcomes active, inactive

Cc1nc2c(cnn2-c2ccccc2)c(=O)n1-c1ccc(NC(=O)c2ccc(F)cc2)cc1 | inactive
Nc1nc(Nc2ccc(Cl)cc2)nn1Cc1cccc(Br)c1 | inactive
COc1cc(/C=C/C(=O)c2ccc(F)cc2)ccc1Oc1nc(Nc2ccc(F)cc2)nc(N(C)C)n1 | inactive
Cc1ccc(-c2cc(-c3cc4ccccc4nc3Cl)[nH]c(=S)n2)cc1 | inactive
CC1CC(c2ccc(N(C)C)cc2)=NN1c1nc(O)c(C2=c3cc(Br)ccc3=NC2=O)s1 (stereo not given) | inactive

Any idea what this test logged for O=c1oc2ccc(-c3ccc(F)cc3F)cc2c(=O)n1-c1ccc(F)cc1 ?
active

Would you kindly repeat that for Cc1noc2c(Cc3ccc([N+](=O)[O-])cc3)nn(CC(=O)N/N=C/c3ccc(Cl)cc3)c(=O)c12 ?
inactive

Would you kindly repeat that for COc1ccc2nc(Cl)c(-c3cc(-c4ccccc4)nc(N)n3)cc2c1 ?
inactive

Would you kindly repeat that for Nc1nc2c(F)c(F)c(F)c(F)c2s1 ?
inactive
